test: in vivo; details: Sprague-Dawley, rat
Measure: half-life

Kindly note the recorded half-life for Nc1ncnc2c([C@@H]3N[C@H](CO)[C@@H](O)[C@H]3O)c[nH]c12 , which is < 5 min

---

assay: in vitro; settings: human, s9, half-life (t1/2)
Measure: half-life

Kindly note the recorded half-life for Nc1ncnc2c([C@@H]3N[C@H](CO)[C@@H](O)[C@H]3O)c[nH]c12 [BCX4430] , which is > 54 min

---

test: in vitro; details: human
Measure: CC50

Kindly note the recorded CC50 for Nc1ncnc2c([C@@H]3N[C@H](CO)[C@@H](O)[C@H]3O)c[nH]c12 , which is > 296 µM
